test_target: T1, Human PD-1 expressed on CHO-K1 cells (CHO-K1/hPD-1) (human, UniProt Q15116 25-288)
T1 construct: whole, on cells; also called CHO-K1 cells overexpressing human PD-1
T1 sequence (Q15116 25-288): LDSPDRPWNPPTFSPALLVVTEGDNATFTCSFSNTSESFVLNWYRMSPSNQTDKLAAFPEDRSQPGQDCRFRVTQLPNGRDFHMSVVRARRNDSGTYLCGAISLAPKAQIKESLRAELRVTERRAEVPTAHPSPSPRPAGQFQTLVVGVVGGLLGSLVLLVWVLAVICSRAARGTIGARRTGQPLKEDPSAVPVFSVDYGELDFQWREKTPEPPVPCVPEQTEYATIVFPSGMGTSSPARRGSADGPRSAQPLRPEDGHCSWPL
assay_details: FACS, CHO-K1/hPD-1 cells

binder: PR002477 (antibody, human IgG1, V domains shown, Heavy-chain-only antibody (HCAb), human IgG1 Fc; two heavy chains, no light chain; also called R4004P547H9) VH: EVQLVETGGGLIQPGGSLRLSCAASGFNVSSHYMSWVRQAPGKGLEWVSIIHSGGSTYYADSVKGRFTISRDNSKNRLYLQMNSLRAEDTAVYYCARAIAVAEKNGYNYPFNYWGQGTLVTVSS
MFI Maximum: 955000
--
binder: PR005090 (VHH, Monovalent single-domain (VH) antibody with Flag-6His tag) VHH: EVQLVETGGGLIQPGGSLRLSCAASGFNVSSHYMSWVRQAPGKGREWVSIIDGGGSTYYADSVKGRFTISRDNSKNRLYLQMNSLRAEDTAMYYCARATAVAEKNGYNYPFNYWGQGTLVTVSS
MFI Maximum: 4150
--
binder: PR002475 (antibody, human IgG1, V domains shown, Heavy-chain-only antibody (HCAb), human IgG1 Fc; two heavy chains, no light chain; also called R4004P547D9) VH: EVQLVETGGGLIQPGGSLRLSCAASGFNVSSNYMSWVRQAPGKGLEWVSIIHSGGSTYYADSVKGRFTISRDNSKNTLYLQMNSLRAEDTAVYYCARAIAVAEKNGYNYPFNYWGQGTLVTVSS
MFI Maximum: 959000
--
binder: PR002474 (antibody, human IgG1, V domains shown, Heavy-chain-only antibody (HCAb), human IgG1 Fc; two heavy chains, no light chain; also called R4004P547D3) VH: EVQLVETGGGLIQPGGSLRLSCAASGFNVSSHYMSWVRQAPGKGLEWVSIIHSGGSTYYADSVKGRFTISRDNSKNRLYLQMNSLRADDTAVYYCARATAVAEKNGYNYPFNYWGQGTLVTVSS
MFI Maximum: 1.08e+06
